- Assay info: Cytotoxicity against human HL-60 cells assessed as reduction in cell viability after 48 hrs by Cell Count Reagent SF based assay
- Assay type: toxicity
Listing: IC50 at 48 h of selected molecules

// known answers, use as guide
molecule=CCc1cc(=O)oc2cc(C)cc(O[C@H](C)C(=O)N3Cc4[nH]c5ccccc5c4C[C@H]3C(=O)OC)c12 value_kind="IC50 at 48 h" measured_result="> 3 µM"
molecule=CCCCc1coc2cc(C)cc(O[C@H](C)C(=O)N3Cc4[nH]c5ccccc5c4C[C@H]3C(=O)OC)c12 value_kind="IC50 at 48 h" measured_result="> 3 µM"
molecule=COC(=O)[C@@H]1Cc2c([nH]c3ccccc23)CN1C(=O)[C@@H](C)Oc1cc(C)cc2oc(=O)cc(CC3CC3)c12 value_kind="IC50 at 48 h" measured_result="> 3 µM"
molecule="CCCCc1cc(=O)oc2cc(C)cc(OC(C(=O)N3Cc4[nH]c5ccccc5c4C[C@H]3C(=O)OC)C(C)C)c12 (stereo partly drawn)" value_kind="IC50 at 48 h" measured_result="> 3 µM"
molecule=CCCCc1cc(=O)oc2cc(C)cc(O[C@H](C)C(=O)N3Cc4[nH]c5ccccc5c4C[C@H]3C(=O)OC)c12 value_kind="IC50 at 48 h" measured_result="> 3 µM"
molecule=CCCCc1cc(=O)oc2cc(C)cc(O[C@H](C)C(=O)N3Cc4[nH]c5ccccc5c4C[C@H]3C(C)=O)c12 value_kind="IC50 at 48 h" measured_result="> 3 µM"
molecule="CCCCc1cc(=O)oc2cc(C)cc(OC(CCC)C(=O)N3Cc4[nH]c5ccccc5c4C[C@H]3C(=O)OC)c12 (stereo partly drawn)" value_kind="IC50 at 48 h" measured_result="> 3 µM"

Here is another molecule to look at.
Lookup result for CCCCc1cc(=O)oc2cc(C)cc(O[C@H](C)C(=O)N3Cc4[nH]c5ccc(F)cc5c4C[C@H]3C(=O)OC)c12 ; measured IC50 at 48 h: > 3 µM
